These measurements were taken from PubChem BioAssay (NCI).

- Test system: HOP-92 NSCLC
- METHOD NOTES: NCI tumour cell line growth inhibition, 48 h
REPORTED ENDPOINT: TGI (µM)
One number for each entry, in µM.

COc1cc([C@@H]2c3cc4c(cc3C[C@@H]3COC(=O)C32)OCO4)cc(OC)c1O (stereo partly specified) | 34.9
CCCCCCCCCCCCC(O)C1CCC(C(O)CCCCCCC(O)CCCCCCCC2=CC(C)OC2=O)O1 (stereo unspecified) | 72.1
O=[N+]([O-])c1ccc(Nc2nc3ccccc3s2)cc1 | 60.9
Cc1occc1C(=S)Nc1ccc(Cl)c(/C=N/OC(C)C)c1 | 37.4

Reported TGI of COc1cc2c(cc1OCCCCCCN1CCN(c3ncnc4ccccc34)CC1)N=CC1CCCN1C2=O (stereo unspecified) : 0.408

====

Kindly state TGI for each of the entries shown.
- Test system: A498 renal
- METHOD NOTES: NCI tumour cell line growth inhibition, 48 h

Solved entries (count: 5):
C=C(C)CN(CC#N)CC(=C)C | > 100 µM
NC(=O)C(c1ccccc1)N1OC2C(=O)N(c3cccc4ccccc34)C(=O)C2C1c1c2ccccc2c(Cl)c2ccccc12 (stereo unspecified) | 37.4 µM
C=C(Br)CN(C(C)=O)C1CCCCC1 | > 100 µM
NC1CCCCC1N.O=S(=O)([O-])CCCN1CCOCC1.O=S(=O)([O-])CCCN1CCOCC1.[Pt+4] | > 100 µM
NNc1nc2ccccc2s1 | > 100 µM

// field: TGI; key: `COC(=O)c1ccccc1/C=C1\Cc2cc(C)cc(C)c2C1=O` ; value = > 100 µM

====

- Tested on: A549 NSCLC
- METHOD NOTES: NCI tumour cell line growth inhibition, 48 h
REPORTED ENDPOINT: TGI

Consider the following illustrative entries.
Cc1ccc(/C=C/C(=O)c2sc(-c3cccnc3)nc2C)cc1 | > 100 µM
CN(C(=O)Cc1ccc(Cl)c(Cl)c1)[C@@H]1CCCC[C@H]1[N+]1(C)CC=CC1 | > 100 µM
CCCn1c(SCC)c2cc3cc4ccccc4cc3cc2c1-c1nc(F)nc(F)n1 | > 100 µM

// batch mode: one TGI value per listed entry
1. Cc1ccc(-c2nc(N)nc3c2nnn3Cc2cccc(CO[C@H]3CCOC3)n2)o1
2. O=c1[nH]c2c3ccccc3ccc2c2cc3c(cc12)OCO3
3. CCSC1=N/C(=C\c2ccco2)C(Cl)=N1

Result block:
> 100 µM
> 100 µM
> 100 µM

Batch: TGI for all items listed.
1. CCOC(=O)[C@@H]1ON2O[C@H](OC3CCCC3(c3ccccc3)c3ccccc3)C[C@H]3OC(=O)[C@@H]1C32 (stereo not given in full)
2. c1cn2cc(-c3ccc4ncn(C5CCCCC5)c4c3)nc(-c3ccc4c(c3)ncn4C3CCCCC3)c2n1
3. CCOC(=O)NC(=O)c1cn(CCCOC(=O)CCCCCCCCCCC(=O)OCCCn2cc(C(=O)NC(=O)OCC)c(=O)n(C)c2=O)c(=O)n(C)c1=O
4. CCc1nc(N)nc(C(=O)NCCNC(=O)c2nc(N)nc(CC)c2C)c1C
5. NC1CCCCC1N.O=S(=O)([O-])CCCN1CCOCC1.O=S(=O)([O-])CCCN1CCOCC1.[Pt+4]
6. C(=NCc1ccccc1)c1ccccc1-c1ccccc1C=NCc1ccccc1
7. C=CCN1C=CC(=O)[C@H](O[Si](C)(C)C(C)(C)C)[C@@H]1/C=C/c1ccccc1
8. O=C1NC(=S)NC(=O)C1=Cc1cccc2cc3ccccc3cc12

Result block:
["76.6 µM", "3.54 µM", "> 100 µM", "> 100 µM", "> 100 µM", "> 10 µM", "50.3 µM", "12.7 µM"]

Each compound below has a reported value. Please supply its TGI.
1. O=C1c2cc([N+](=O)[O-])ccc2-c2cccc(F)c21
2. COC1OC(C)C(O)CC1OS(=O)(=O)c1ccc(C)cc1 (stereo not given)
3. CCC[CH2][Sn]([CH2]CCC)([O]C(=O)C(N)CSC)[O]C(=O)C(N)CSC (stereo not given)
4. COc1ccc(-c2c(CN3CCOCC3)sc3nc4ccccc4n23)cc1
5. O=P([O-])(O)OP(=O)([O-])O.[NH-][C@@H]1CCCC[C@H]1[NH-].[Pt+4]

Result block:
1. > 100 µM
2. > 100 µM
3. > 79.7 µM
4. > 86.1 µM
5. > 100 µM

compound `CSc1nc(NC(=O)O)c(N(C(C)=O)C(=O)O)c(=O)n1C` , TGI observed: > 100 µM
